# systemTested: T1, human ABCC4 (human, UniProt O15439 1-1325)
# T1 construct: Expressed on murine C6 cells stably transfected with human ABCC4 cDNA with C-terminal FLAG tag; also called MRP4; Multidrug resistance protein 4; not shown: C-terminal fused FLAG tag
# T1 sequence: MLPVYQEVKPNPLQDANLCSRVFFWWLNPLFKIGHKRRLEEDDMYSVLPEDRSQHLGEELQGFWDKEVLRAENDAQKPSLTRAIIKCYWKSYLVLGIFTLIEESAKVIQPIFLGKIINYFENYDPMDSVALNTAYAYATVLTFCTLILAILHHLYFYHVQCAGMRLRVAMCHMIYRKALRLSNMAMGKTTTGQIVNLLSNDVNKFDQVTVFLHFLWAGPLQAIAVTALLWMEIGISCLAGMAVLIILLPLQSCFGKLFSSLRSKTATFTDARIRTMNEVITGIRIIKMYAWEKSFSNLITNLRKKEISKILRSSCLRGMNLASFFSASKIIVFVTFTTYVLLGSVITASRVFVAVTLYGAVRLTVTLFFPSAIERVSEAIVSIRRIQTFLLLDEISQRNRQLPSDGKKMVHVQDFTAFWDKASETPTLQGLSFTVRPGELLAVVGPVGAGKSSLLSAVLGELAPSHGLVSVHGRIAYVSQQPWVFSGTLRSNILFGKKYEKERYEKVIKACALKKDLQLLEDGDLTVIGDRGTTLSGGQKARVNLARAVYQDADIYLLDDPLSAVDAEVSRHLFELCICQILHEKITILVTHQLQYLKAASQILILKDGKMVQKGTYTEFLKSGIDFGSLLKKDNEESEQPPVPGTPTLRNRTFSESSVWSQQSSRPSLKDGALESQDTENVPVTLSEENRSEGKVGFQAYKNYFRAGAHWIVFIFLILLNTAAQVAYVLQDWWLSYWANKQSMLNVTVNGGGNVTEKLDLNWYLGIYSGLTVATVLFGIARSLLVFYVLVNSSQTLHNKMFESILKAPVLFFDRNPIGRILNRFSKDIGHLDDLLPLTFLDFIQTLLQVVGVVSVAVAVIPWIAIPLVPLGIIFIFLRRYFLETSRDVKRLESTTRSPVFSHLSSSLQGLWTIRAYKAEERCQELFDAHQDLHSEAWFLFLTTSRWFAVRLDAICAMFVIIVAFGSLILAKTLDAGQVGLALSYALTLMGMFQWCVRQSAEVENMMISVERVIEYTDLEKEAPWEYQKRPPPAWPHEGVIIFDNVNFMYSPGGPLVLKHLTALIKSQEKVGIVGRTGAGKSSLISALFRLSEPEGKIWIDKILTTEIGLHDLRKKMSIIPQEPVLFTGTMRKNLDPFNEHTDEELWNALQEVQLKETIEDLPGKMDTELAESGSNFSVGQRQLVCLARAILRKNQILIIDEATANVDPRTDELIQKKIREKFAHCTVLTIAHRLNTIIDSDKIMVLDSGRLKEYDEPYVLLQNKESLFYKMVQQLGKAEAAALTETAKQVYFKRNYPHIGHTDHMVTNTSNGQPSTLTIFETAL
# testDescription: FACS, C6 cells stably expressing human ABCC4; + = MFI>3x background
propertyLabel: binding result

binder="C4.1054 (antibody, V domains shown) VH: QVQLLQSGAALVKPGASVKMSCKPSGYTFTDYWVSWVKQSHGKSLEWIGEIYPNNGATNFNEKFKGKATLTVDKSTSTAYMELSRLTSEDSAIYYCPSRKYGYNWNFDYWGQGTMVTVSS VL: DIVLTQSPALAVSLGQRATISCRARQSVSISRYNLMHWYQQKPGQQPKVLIYRASNLASGIPARFSGSGSGTDFTLTIDPVQADDIATYYCQQSRDSPWTFGGGTKLELK" reading=binds

Recorded values, source patent US20240010747A1.
